What follows is literature data on IC50 for Cyclin-dependent kinase 2 (Homo sapiens).
ENDPOINT: IC50

[[record]]
entry_smiles = "Cc1nc(Nc2n[nH]c3c2CN(C(=O)N[C@H](CN(C)C)C2CCOCC2)C3(C)C)c2ccsc2n1"
target = "Cyclin-dependent kinase 2 (Homo sapiens)"
endpoint_value = "> 10 µM"

[[record]]
entry_smiles = "COC(=O)c1ccc(NC(=O)c2ccc(C(=O)Nc3ccc(OC)cc3C)s2)cc1"
target = "Cyclin-dependent kinase 2 (Homo sapiens)"
endpoint_value = "≥ 40 µM"

[[record]]
entry_smiles = "Cc1cc(N(C)CCN(C)C)ccc1NC(=O)c1ccc(C(=O)Nc2ccc(-n3cncn3)cc2)s1"
target = "Cyclin-dependent kinase 2 (Homo sapiens)"
endpoint_value = "≤ 1 µM"

[[record]]
entry_smiles = "COc1ccc(NC(=O)c2ccc(C(=O)Nc3cccc(-c4cnco4)c3)s2)c(C)c1"
target = "Cyclin-dependent kinase 2 (Homo sapiens)"
endpoint_value = "≥ 40 µM"

[[record]]
entry_smiles = "c1nc2ccc(Nc3nc(Nc4ccc5ncsc5c4)c4cn[nH]c4n3)cc2s1"
target = "Cyclin-dependent kinase 2 (Homo sapiens)"
endpoint_value = "1 µM"

[[record]]
entry_smiles = "COc1cccc(-c2cnc(Nc3ccc(CN(C)C)cc3)o2)c1"
target = "Cyclin-dependent kinase 2 (Homo sapiens)"
endpoint_value = "< 1 µM"

[[record]]
entry_smiles = "CN(Cc1ccccc1)C(=O)c1ccc(C(=O)Nc2ccc(-n3cncn3)cc2)s1"
target = "Cyclin-dependent kinase 2 (Homo sapiens)"
endpoint_value = "≥ 40 µM"


----------
What follows is literature data on IC50 for Cyclin-dependent kinase 2 (Homo sapiens, UniProt P24941).
In plain terms, low IC50, meaning strictly below 200 nM, gives Yes, and everything else gives No.

[[record]]
compound = "N#Cc1cc2cnc(Nc3ccc4c(c3)CCNC4)nc2n(CC2CCCCC2)c1=O"
group_label = "No"

[[record]]
compound = "C=CC(=O)Nc1ccc(C(=O)Nc2n[nH]c3c2CN(C(=O)N[C@H]2CCCN(C)C2)C3(C)C)cc1"
group_label = "Yes"

[[record]]
compound = "N#Cc1cc2cnc(Nc3ccc4c(c3)C(=O)NCC4)nc2n(C2CCCC2)c1=O"
group_label = "No"

[[record]]
compound = "CS(=O)(=O)N1CCC(Nc2ncc3cc(C#N)c(=O)n(C4CCC4)c3n2)CC1"
group_label = "Yes"

[[record]]
compound = "N#Cc1cc2cnc(Nc3ccc4c(c3)CNCC4)cc2n(C2CCCC2)c1=O"
group_label = "No"

[[record]]
compound = "CS(=O)(=O)N1CCC(Nc2ncc3cc(C#N)c(=O)n([C@@H]4C[C@H]5CC[C@@H]4C5)c3n2)CC1"
group_label = "Yes"

[[record]]
compound = "COc1ccc(NC(=O)c2ccc(C(=O)Nc3ccc4c(c3)OCO4)s2)c(C)c1"
group_label = "No"

[[record]]
compound = "N#Cc1cc2cnc(NC3CCN(S(=O)(=O)CC(F)(F)F)CC3)nc2n(C2CCCC2)c1=O"
group_label = "Yes"

[[record]]
compound = "O=C(Nc1ccc(-n2cncn2)cc1)c1ccc(C(=O)N[C@@H]2CCNC2)s1"
group_label = "No"

[[record]]
compound = "CCC(C)n1c(=O)c(C#N)cc2cnc(NC3CCN(S(C)(=O)=O)CC3)nc21 (centres unmarked)"
group_label = "Yes"

[[record]]
compound = "CS(=O)(=O)N1CCC(Nc2ncc3cc(C#N)c(=O)n([C@@H]4CCC(F)(F)C4)c3n2)CC1"
group_label = "Yes"

[[record]]
compound = "O=C(Nc1ccc(-n2cncn2)cc1)c1ccc(C(=O)Nc2ccccc2Cl)s1"
group_label = "No"

[[record]]
compound = "COc1ccc(NC(=O)c2ccc(C(=O)Nc3ccc(N4CCNCC4)cc3)s2)c(C)c1"
group_label = "No"

[[record]]
compound = "CC(C)N1CCOc2c(F)cc(-c3nc(Nc4cc(N5CCCNCC5)ccn4)ncc3F)cc21"
group_label = "No"

[[record]]
compound = "COc1ccc(NCc2ccc(C(=O)Nc3ccc(-n4cncn4)cc3)o2)c(C)c1"
group_label = "No"


----------
What follows is literature data on IC50 for Cyclin-dependent kinase 2 (Homo sapiens, UniProt P24941).
ENDPOINT: IC50

[[record]]
entry_smiles = "c1ccc(Nc2nc(OCC3CCCCC3)c3cn[nH]c3n2)cc1"
endpoint_value = "> 10000 nM"

[[record]]
entry_smiles = "Cc1cc(N2CCOCC2)ccc1NC(=O)c1ccc(C(=O)Nc2ccc(-n3cncn3)c(F)c2)s1"
endpoint_value = "≤ 1000 nM"

[[record]]
entry_smiles = "O=C1Nc2nc(Cl)ccc2C1=CNc1ccc2cn[nH]c2c1"
endpoint_value = "100 to 1000 nM"


----------
What follows is literature data on pIC50 for UniProtKB P24941.
pIC50: −log10 of the molar value.
ENDPOINT: pIC50

[[record]]
compound = "Cc1cc(Nc2ncc(-c3cccc(OC4CCCC4)c3)o2)cnc1N1CCN(C)CC1"
endpoint_value = "> 6.00"

[[record]]
compound = "COc1cccc(-c2cnc(Nc3ccc(N4CCN(C)CC4)cc3)o2)c1"
endpoint_value = "> 6.00"

[[record]]
compound = "Cc1cc(OCCN2CCOCC2)ccc1NC(=O)c1ccc(C(=O)Nc2ccc(-n3cncn3)cc2)s1"
endpoint_value = "≥ 6.00"

[[record]]
compound = "N#Cc1cc2cnc(Nc3ccc4c(c3)CCNC4)nc2n(C2CCC(F)(F)C2)c1=O (centres unmarked)"
endpoint_value = 6.70

[[record]]
compound = "Cc1cc(N[C@H]2CCNC2)ccc1NC(=O)c1ccc(C(=O)Nc2ccc(-n3cncn3)cc2)s1"
endpoint_value = "≥ 6.00"

[[record]]
compound = "Cc1cc(CN2CCN(C)CC2)ccc1NC(=O)c1ccc(C(=O)Nc2ccc(-n3cncn3)cc2)s1"
endpoint_value = "≥ 6.00"

[[record]]
compound = "O=C(Nc1ccc(Cl)cc1)c1ccc(C(=O)Nc2ccc(-n3cncn3)cc2)s1"
endpoint_value = "4.40 to 6.00"

[[record]]
compound = "C=CC(=O)Nc1ccc(C(=O)N2CC[C@@H](Nc3ncc4ccccc4n3)C2)cc1Cl"
endpoint_value = "5.00 to 6.00"

